# credit: patent US20100093748A1

Target: PKB-PIF fusion protein (Homo sapiens, UniProt P31751)
Construct: PIF (fusion partner)
Sequence (P31751 with tags, fused parts or gaps limits assumed): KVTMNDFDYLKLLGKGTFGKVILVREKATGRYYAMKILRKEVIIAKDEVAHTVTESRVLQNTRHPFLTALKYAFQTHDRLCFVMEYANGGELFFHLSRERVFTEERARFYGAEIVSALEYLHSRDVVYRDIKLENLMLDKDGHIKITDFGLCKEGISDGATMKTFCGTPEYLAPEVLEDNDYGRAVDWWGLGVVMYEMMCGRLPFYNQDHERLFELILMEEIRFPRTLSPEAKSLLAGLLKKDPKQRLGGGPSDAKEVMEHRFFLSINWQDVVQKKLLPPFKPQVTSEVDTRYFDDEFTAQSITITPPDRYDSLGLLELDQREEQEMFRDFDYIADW
Assay: Measurement of PKB kinase inhibitory activity (IC50), radiometric filter plate assay
Conditions: 0.6 nM enzyme, 30 μM ATP, AKTide-2T substrate, 20 minutes
pIC50: −log10 of the molar value.
quantity: pIC50

The molecule identified as `Cc1ccc2nc(C3(N)CCN(c4ncnc5[nH]ccc45)CC3)[nH]c2c1` registered its pIC50 at > 7.00

The molecule identified as `OCC1(c2nc3ccccc3[nH]2)CCN(c2ncnc3[nH]ccc23)CC1` registered its pIC50 at > 6.00

The molecule identified as `NC1(c2ncc(-c3ccccc3)[nH]2)CCN(c2ncnc3[nH]ccc23)CC1` registered its pIC50 at > 7.00

The molecule identified as `NC1(c2ncc(-c3ccccc3)[nH]2)CCN(c2ccnc3[nH]ccc23)CC1` registered its pIC50 at > 7.00

---

Target: PKB-PIF fusion protein (Homo sapiens, UniProt P31751)
Construct: PIF (fusion partner)
Assay: Measurement of PKB kinase inhibitory activity (IC50), radiometric filter plate assay
Details: 0.6 nM enzyme, 30 μM ATP, AKTide-2T substrate, 20 minutes
Quick list: IC50 per entry.

Entry `Cc1cccc2nc(C3(N)CCN(c4ncnc5[nH]ccc45)CC3)[nH]c12` , tested on PKB-PIF fusion protein (Homo sapiens, UniProt P31751), has a reported IC50 of < 100 nM

---

System: phosphorylation of Serine-9 residue in Glycogen Synthase Kinase-3beta as surrogate marker of cellular PKB (Akt) activity
Assay: In vitro MDA-MB-468 human breast adenocarcinoma GSK-3 phosphorylation assay
Format: cell-based
Settings: MDA-MB-468, 2 h, read-out: Cell pGSK3b IC50
quantity: IC50 (nM)
Numeric only. Scale: nM

The compound identified as `NC1(c2nc3cc(SC(F)(F)F)ccc3[nH]2)CCN(c2ncnc3[nH]ccc23)CC1` registered its IC50 at 420

---

Biological target: PKB-PIF fusion protein (Homo sapiens)
Construct: PIF (fusion partner)
Experiment: Measurement of PKB kinase inhibitory activity (IC50), radiometric filter plate assay
Conditions: 0.6 nM enzyme, 30 μM ATP, AKTide-2T substrate, 20 minutes
quantity: IC50

The following molecules have reported results that may help.
The molecule identified as `Cc1ccc2nc(C3(N)CCN(c4ncnc5[nH]cnc45)CC3)[nH]c2c1` registered its IC50 at < 100 nM

The molecule identified as `COc1ccc2[nH]c(C3(N)CCN(c4ncnc5[nH]ccc45)CC3)nc2c1` registered its IC50 at < 100 nM

The molecule identified as `NC1(c2nc3ccccc3[nH]2)CCN(c2ccnc3[nH]ccc23)CC1` registered its IC50 at < 100 nM

The molecule identified as `NC1(c2nc3cnccc3[nH]2)CCN(c2ncnc3[nH]ccc23)CC1` registered its IC50 at < 100 nM

Next:
The molecule identified as `NC1(c2nc3ccc(F)cc3[nH]2)CCN(c2ncnc3[nH]ccc23)CC1` registered its IC50 at < 100 nM

The molecule identified as `NC1(c2nc3ccccc3[nH]2)CCN(c2ncnc3[nH]c(=O)[nH]c23)CC1` registered its IC50 at < 100 nM

The molecule identified as `NC1(c2nc3ccc(F)c(F)c3[nH]2)CCN(c2ncnc3[nH]ccc23)CC1` registered its IC50 at < 100 nM

The molecule identified as `NC1(c2nc3cc(F)cc(F)c3[nH]2)CCN(c2ncnc3[nH]ccc23)CC1` registered its IC50 at < 100 nM

The molecule identified as `NC1(c2ncc(-c3ccccc3)o2)CCN(c2ncnc3[nH]ccc23)CC1` registered its IC50 at < 1000 nM

---

Target: PKB-PIF fusion protein (Homo sapiens)
Construct: PIF (fusion partner); made in house
Assay: Measurement of PKB kinase inhibitory activity (IC50), radiometric filter plate assay
Format: biochemical
Conditions: 0.6 nM enzyme, 30 μM ATP, AKTide-2T substrate, 20 minutes
pIC50: −log10 of the molar value.
quantity: pIC50

The compound identified as `NCC1(c2nc3ccccc3[nH]2)CCN(c2ncnc3[nH]ccc23)CC1` registered its pIC50 at > 7.00

Could you now consider this next compound?
The compound identified as `NCC1(c2nc3ccccc3o2)CCN(c2ncnc3[nH]ccc23)CC1` registered its pIC50 at > 7.00

---

Molecular target: PKB-PIF fusion protein (Homo sapiens)
Construct: PIF (fusion partner); made in house
Assay: Measurement of PKB kinase inhibitory activity (IC50), radiometric filter plate assay
Format: biochemical
Settings: 0.6 nM enzyme, 30 μM ATP, AKTide-2T substrate, 20 minutes
pIC50: −log10 of the molar value.
quantity: pIC50

The following compounds have reported results that may help.
The compound identified as `NC1(c2nc3cccc(F)c3[nH]2)CCN(c2ncnc3[nH]ccc23)CC1` registered its pIC50 at > 7.00

The compound identified as `COc1cccc2[nH]c(C3(N)CCN(c4ncnc5[nH]ccc45)CC3)nc12` registered its pIC50 at > 7.00

Next:
The compound identified as `NC1(c2nc3ccccc3[nH]2)CCN(c2ncnc3[nH]ccc23)CC1` registered its pIC50 at > 7.00

The compound identified as `NC1(c2nc3ccccc3o2)CCN(c2ncnc3[nH]ccc23)CC1` registered its pIC50 at > 7.00

The compound identified as `CNC1(c2nc3ccccc3[nH]2)CCN(c2ncnc3[nH]ccc23)CC1` registered its pIC50 at > 6.00

---

Biological target: PKB-PIF fusion protein (Homo sapiens)
Construct: PIF (fusion partner)
Experiment: Measurement of PKB kinase inhibitory activity (IC50), radiometric filter plate assay
Settings: 0.6 nM enzyme, 30 μM ATP, AKTide-2T substrate, 20 minutes
quantity: IC50

The following molecules have reported results that may help.
Entry NC1(c2nc3ccc(Cl)cc3[nH]2)CCN(c2ccnc3[nH]ccc23)CC1 [Example 20] , tested on PKB-PIF fusion protein (Homo sapiens), has a reported IC50 of < 100 nM

Entry NC1(c2nc3cc(F)c(F)cc3[nH]2)CCN(c2ncnc3[nH]ccc23)CC1 [Example 2] , tested on PKB-PIF fusion protein (Homo sapiens), has a reported IC50 of < 100 nM

Next:
Entry NC1(c2nc3ccccc3o2)CCN(c2ncnc3[nH]c(=O)[nH]c23)CC1 [Example 38] , tested on PKB-PIF fusion protein (Homo sapiens), has a reported IC50 of < 1000 nM
